System: NCI-H522 lung
Experimental Details: NCI tumour cell line growth inhibition, 48 h
Examples of molecules with documented TGI follow.

Molecule	TGI
CCOC(=O)/C=C(/C=C\COC1CCCCO1)c1ccccc1 (stereo not drawn)	83.5 µM
Nc1cc(N)c2nc(-c3ccccc3)c(Oc3ccc(F)cc3)nc2c1	> 100 µM
Cn1cc(C2=C(c3cn(C)c4ccc(N)cc34)C(=O)NC2=O)c2ccccc21	> 25 µM
O=C(O)c1cc[c]([Hg][S]c2ncnc3nc[nH]c23)cc1	8.24 µM
Cc1cccc(NC(=O)c2sc3nc4c(cc3c2N)CCCC4)c1C	> 100 µM
O=P(OCc1ccccc1)(OCc1ccccc1)C(O)/C=C/c1ccccc1 (stereo not drawn)	57.7 µM
CSc1nc2c(c(O)c(C)c(=O)n2C2OC(COC(C)=O)C(OC(C)=O)C(OC(C)=O)C2OC(C)=O)c(=O)n1C (stereo not drawn)	> 100 µM
CC(=O)C1(O)CCC2(O)C3(O)CC=C4CC(O)CCC4(C)C3CC(OC(=O)c3ccc(O)cc3)C12C (stereo not drawn)	> 100 µM

---

Tested on: HT29 colon
Experimental Details: NCI tumour cell line growth inhibition, 48 h; in the data active = GI50 below about 0.43 µM; inactive = the rest
Classes used: True (active), False (inactive)

Molecule	Label Class
COc1ccc(C(=O)N2c3ccccc3Sc3ccccc32)c(F)c1	True
COc1cc(C2c3cc4c(cc3[C@@H](Nc3ccc(N(C)C)cc3)[C@H]3COC(=O)C23)OCO4)cc(OC)c1O (some centres undefined)	False
CCN(c1ccc(CO)c(Cl)c1)C(C)c1ccc(F)cc1 (centres undefined)	False
CC[C@H](C)[C@H](NC(=O)c1cnccn1)C(=O)N(C)[C@H](C[C@@H](OC(C)=O)c1nc(C(=O)N[C@@H](Cc2ccccc2)C[C@H](C)C(=O)OC)cs1)C(C)C	False

---

Test system: TK-10 renal
Experimental Details: NCI tumour cell line growth inhibition, 48 h

Compound	Subject Of Test	TGI (µM)
O=C(OC12CC3CC(CC(C3)C1)C2)c1ccc(NCc2cc(O)ccc2O)cc1	TK-10 renal	1.96
COC(=O)C1=C(OC(=O)c2ccc(Cl)cc2)C(C(=O)OC)[C@@]2(O)[C@@H](C(=O)OC)C(c3ccccc3C(F)(F)F)C[C@@H]1[C@@H]2C(=O)OC (some centres undefined)	TK-10 renal	78.8
CC(C)c1ccc2nc3ccc(C(=O)NCCN(C)C)cn3c(=O)c2c1	TK-10 renal	34.3
CC1(C)N=C(N)N=C(N)N1c1ccc(CCc2ccccc2)c(Cl)c1	TK-10 renal	18.3
O=P1(C(O)/C=C/c2ccccc2)N(Cc2ccccc2)[C@@H]2CCCC[C@H]2N1Cc1ccccc1 (some centres undefined)	TK-10 renal	28.5
CN(C)CCCNc1cc(O)c2c(c1O)C(=O)c1ccccc1C2=O	TK-10 renal	22.1
Cc1cc([N+](=O)[O-])c(C)c2c1[nH]c1ccc(/C(CCC3CCCC3)=N\N)cc12	TK-10 renal	27.3
O=[N+]([O-])/C(Cl)=C(/C(Cl)=C(Cl)Cl)N1CCCCC1	TK-10 renal	35.8
COc1cc2c3cc1Oc1c(OC)c(OC)cc4c1C(Cc1ccc(O)c(c1)Oc1ccc(cc1)CC3N(C)CC2)CN(C)C4 (centres undefined)	TK-10 renal	32.2
COc1cc(/C=C2\CN(C)CC3=C2Nc2nc(SC)[nH]c(=O)c2C3c2cc(OC)c(OC)c(OC)c2)cc(OC)c1OC (centres undefined)	TK-10 renal	18.9
